system: HFF; assay: uninfected host cell viability relative to vehicle control; higher = less host cell toxicity; settings: 5 µM; 72 h; oxygen 21 %
Where a name gives a salt, the structure may show the parent alone. The whole screen tested about 1,000 compounds, of which about 15 (2%) showed an effect of 50% or more. The sample holds strong results, similar compounds and a random draw of the others, so the mix is not that of the screen.
Parameter measured: uninfected host cell viability (%)
Just the number please, in %, no unit attached.

uninfected host cell viability recorded for this molecule, "O=C1NC(=O)c2cc(Nc3ccccc3)c(Nc3ccccc3)cc21" , is 93.2

uninfected host cell viability recorded for this molecule, Nc1c(Br)cc(Br)cc1CN[C@H]1CC[C@H](O)CC1 [Ambroxol hydrochloride] , is 83.8

uninfected host cell viability recorded for this molecule, Cc1ccc2c(c1)c1c3n2CCNC3CCC1 (stereo not given) [Pirlindole mesylate] , is 88

uninfected host cell viability recorded for this molecule, "N[C@@H](CC(=O)Nc1ccc(Oc2cc(F)c(F)cc2Br)cc1)C(=O)O" , is 95

uninfected host cell viability recorded for this molecule, "Nc1nc2c(ccc3ccccc32)s1" , is 77.6

uninfected host cell viability recorded for this molecule, "Oc1nc(-c2ccc(C(F)(F)F)cc2)nc2c1CSCC2" , is 83.2

uninfected host cell viability recorded for this molecule, "CCc1ccc(OCc2ccccc2C(=O)Nc2ccc3nc(C)cc(N)c3c2)cc1" , is 15

uninfected host cell viability recorded for this molecule, "NC(=O)N/N=C/c1ccc(Oc2ccc(F)cc2)cc1" , is 87.6

uninfected host cell viability recorded for this molecule, CC(C)c1ccc2c(c1)CC[C@H]1[C@](C)(CN)CCC[C@]21C [Lylamine hydrochloride] , is 87.8

uninfected host cell viability recorded for this molecule, COc1ccc(NC(=O)c2cc(OCCCN(C)C)nn2Cc2ccccc2)cc1 [CFM 1571 hydrochloride] , is 81.7

###

tested on: HFF; assay: uninfected host cell viability relative to vehicle control; higher = less host cell toxicity; details: 5 µM; 72 h; oxygen 21 %
Counter-ions that a name gives are not always drawn. The whole screen tested about 1,000 compounds, of which about 15 (2%) showed an effect of 50% or more. This is one part of a sample in which strong results are shown more often than they occur.
Parameter measured: uninfected host cell viability

uninfected host cell viability recorded for this molecule, CN(C)CCCSC(=N)N [Dimaprit dihydrochloride] , is 95.8%

uninfected host cell viability recorded for this molecule, "CN(CCCN1c2ccccc2CCc2ccccc21)CC(=O)c1ccc(Cl)cc1" , is 89.6%

uninfected host cell viability recorded for this molecule, CC#CCOC(=O)C1=CCCN(C)C1 [Arecaidine but-2-ynyl ester tosylate] , is 88%

uninfected host cell viability recorded for this molecule, "COc1cc(Br)c(S(=O)(=O)Nc2ccc(Cl)c(O[C@@H]3CCN(C)C3)c2)cc1OC" , is 96.9%

uninfected host cell viability recorded for this molecule, OC[C@H]1NC[C@@H](O)[C@@H](O)[C@@H]1O [1-Deoxymannojirimycin hydrochloride] , is 86.6%

uninfected host cell viability recorded for this molecule, CN1CCC(Nc2ncc3ncnc(Nc4ccc(F)c(Cl)c4)c3n2)CC1 [BIBX 1382 dihydrochloride] , is 80.7%

uninfected host cell viability recorded for this molecule, CC(Cc1ccccc1)(NC(=O)CN)c1ccccc1 (stereo not drawn) [Remacemide hydrochloride] , is 85.5%

uninfected host cell viability recorded for this molecule, "Cc1c(C(=O)NN2CCOCC2)nn(-c2ccc(Cl)cc2Cl)c1-c1ccc(I)cc1" , is 90.8%

uninfected host cell viability recorded for this molecule, "CC(Oc1ccc(O)cc1)(P(=O)(O)O)P(=O)(O)O" , is 95.3%

uninfected host cell viability recorded for this molecule, "CC(C)c1ccccc1S(=O)(=O)c1cc(N)c2ncccc2c1[N+](=O)[O-]" , is 73.2%

uninfected host cell viability recorded for this molecule, "CN(Cc1ccccc1)C(=O)[C@H](Cc1ccc2ccccc2c1)NC(=O)[C@@H]1CCCN1C(=O)Nc1ccccc1[N+](=O)[O-]" , is 87.6%

uninfected host cell viability recorded for this molecule, "CNC(=O)[C@H]1O[C@@H](n2cnc3c(NCc4cccc(I)c4)ncnc32)[C@H](O)[C@@H]1O" , is 80.9%

uninfected host cell viability recorded for this molecule, "O=C(O)c1ccc(-c2c[nH]c3ncc(-c4ccccc4)cc23)cc1C1CCCC1" , is 109%

uninfected host cell viability recorded for this molecule, CCCCNC(=O)[C@@H]1Cc2ccccc2N1C(=O)[C@@H](N)CC [Butabindide oxalate] , is 88.3%

uninfected host cell viability recorded for this molecule, "N[C@@H](Cc1cc(CP(=O)(O)O)cc(-c2ccccc2Cl)c1)C(=O)O" , is 88.9%

uninfected host cell viability recorded for this molecule, CCOC(=O)c1c(C)[nH]c2ccc3c(c12)CN1CCc2cc(OC)ccc2C1O3 (stereo not drawn) , is 96.1%

uninfected host cell viability recorded for this molecule, COCCNC(=O)COc1ccc(OCCNC[C@H](O)COc2ccccc2)cc1 [ZD 7114 hydrochloride] , is 83.8%

uninfected host cell viability recorded for this molecule, "O=C(O)c1ccc(C=C2SC(=S)N(c3cccc(C(F)(F)F)c3)C2=O)cc1" , is 87.8%

Reference source for all entries: the supplement of paper PMC4894684
